Data origin, for the record: patent EP0588608A2

- Test system: ACAT
- assay procedure: ACAT inhibiting activity test using HepG2 cells
- Type: cell-based
- condition notes: 10⁻⁶M test compound, human cultured cell line HepG2, [14C]-oleic acid incorporation into cholesterol ester; 1 µM
recorded endpoint: Percentage of ACAT Inhibition (%)
Form entry: value (%) — number only.

Inquiry: Find the measured Percentage of ACAT Inhibition of Cc1cc2c(c(C)c1Br)C(CNC(=O)Nc1c(C(C)C)cccc1C(C)C)c1ccccc1CO2 (stereo not drawn) with ACAT as test system.
Reply text: 97

Inquiry: Find the measured Percentage of ACAT Inhibition of CC(C)c1cccc(C(C)C)c1NC(=O)NCC1c2ccccc2COc2ccc(Br)cc21 (stereo not drawn) with ACAT as test system.
Reply text: 98

Inquiry: Find the measured Percentage of ACAT Inhibition of CC(C)c1cccc(C(C)C)c1NC(=O)NC=C1c2ccccc2COc2ccccc21 with ACAT as test system.
Reply text: 93

Inquiry: Find the measured Percentage of ACAT Inhibition of CC(C)c1cccc(C(C)C)c1NC(=O)NC=C1c2ccccc2CCc2ccccc21 with ACAT as test system.
Reply text: 94

Inquiry: Find the measured Percentage of ACAT Inhibition of Cc1ccc2c(c1)C(CNC(=O)Nc1c(C(C)C)cccc1C(C)C)c1ccccc1CO2 (stereo not drawn) with ACAT as test system.
Reply text: 99

Inquiry: Find the measured Percentage of ACAT Inhibition of CC(C)c1cccc(C(C)C)c1NC(=O)OCC1c2ccccc2COc2ccccc21 (stereo not drawn) with ACAT as test system.
Reply text: 40
